# System: DLD-1
# Method notes: NCI tumour cell line growth inhibition, 48 h
Activity calls are given as the source filed them. Cut-off read from the data, not from the text of the source: active = GI50 up to about 1.1 µM and inactive = higher.
Outcome measure: GI50

Worked examples, 5 compounds total:
O=[N+]([O-])c1cccc(C2=NN(c3ccccc3)C[N+](c3ccc(Br)cc3)=N2)c1: 96.8 µM (inactive)
c1ccc2c3nc(C4CCCC4)nc-3c(NC3CCCC3)[nH]c2c1: 30 µM (inactive)
C=C(c1nc2ccc(Cl)cc2[nH]c1=O)C(O)c1ccc(C(O)C(=O)c2nc3ccc(Cl)cc3[nH]c2=O)cc1 (stereo unspecified): > 100 µM (inactive)
CS(=O)(=O)N(CCC#N)c1ccc(/C=C2\N=C(c3ccccc3Cl)OC2=O)cc1: > 100 µM (inactive)
N#Cc1c(C[n+]2ccccc2)c2ccccc2oc1=O: > 100 µM (inactive)

Turning now to a further record.
Enter measured GI50, system DLD-1, for the compound shown: `COc1ccc(/C=N/N=C(\N)NO)cc1F` 53.7 µM (inactive)
